- System: Zika virus, FSS 13025 strain (ZIKV, Cambodia 2010)
- Assay Details: Yield reduction assay followed by plaque assay in Vero cells, ZIKV Cambodia 2010
- Format: cell-based
- Conditions Used: Zika virus, 96 h; Vero cells, MOI 0.01, 4 days, plaque assay of supernatants; * = average of multiple data points; read-out: ZIKV, Cambodian 2010 IC50
Provide the reported IC50 of each item.
One number for each entry, in µM.

{"Molecule": "[N-]=[N+]=Nc1ccc(NCCCCN2C[C@H](O)[C@@H](O)[C@H](O)[C@H]2CO)c([N+](=O)[O-])c1", "Subject Of Test": "Zika virus, FSS 13025 strain (ZIKV, Cambodia 2010)", "Readout Value": 30.4}
{"Molecule": "O=[N+]([O-])c1cc(-c2ccccn2)ccc1NCCCCCCN1C[C@H](O)[C@@H](O)[C@H](O)[C@H]1CO", "Subject Of Test": "Zika virus, FSS 13025 strain (ZIKV, Cambodia 2010)", "Readout Value": 47}
{"Molecule": "O=[N+]([O-])c1cc(-c2ncccn2)ccc1NCCCCCCN1C[C@H](O)[C@@H](O)[C@H](O)[C@H]1CO", "Subject Of Test": "Zika virus, FSS 13025 strain (ZIKV, Cambodia 2010)", "Readout Value": 18.9}

Batch request: IC50 per item, same order as input.
1. OC[C@@H]1[C@@H](O)[C@H](O)[C@@H](O)CN1CCCCCCNc1ccc(-n2ncnn2)cc1
2. O=[N+]([O-])c1cc(NCCCCCCN2C[C@H](O)[C@@H](O)[C@H](O)[C@H]2CO)ccc1-n1cnnn1
3. N/C(=N/O)c1ccc(NCCCCCCN2C[C@H](O)[C@@H](O)[C@H](O)[C@H]2CO)c([N+](=O)[O-])c1
4. CN1CCN(Cc2ccc(NCCCCCCN3C[C@H](O)[C@@H](O)[C@H](O)[C@H]3CO)c([N+](=O)[O-])c2)CC1
5. COC(C)(C)CCCCCCCCN1C[C@H](O)[C@@H](O)[C@H](O)[C@H]1CO

Resp:
1: 140; 2: 88.5; 3: 77.1; 4: 12.1; 5: 10.1

Fill in IC50 for each of the 2 molecules listed.
1. O=[N+]([O-])c1cc(-n2cnnn2)ccc1NCCCCCCN1C[C@H](O)[C@@H](O)[C@H](O)[C@H]1CO
2. OC[C@@H]1[C@@H](O)[C@H](O)[C@@H](O)CN1CCCCCCCCC1CCCO1 (some centres unmarked)

Resp:
[69.3, 45.7]

###

- Assay Details: In vitro cell cytotoxicity (CellTiter-Glo) in Vero cells
- Format: cell-based
- Conditions Used: African green monkey, 3-5 days, max concentration 500 or 1000 μM, * = average of two values
# label = True if CC50 < 800 µM else False

Consider the following illustrative entries.
{"Chemical Smiles": "O=[N+]([O-])c1cc(-n2cnnn2)ccc1NCCCCCCN1C[C@H](O)[C@@H](O)[C@H](O)[C@H]1CO", "Discrete Label": "False"}
{"Chemical Smiles": "[N-]=[N+]=Nc1ccc([N+](=O)[O-])c(NCCCCCCN2C[C@H](O)[C@@H](O)[C@H](O)[C@H]2CO)c1", "Discrete Label": "True"}
{"Chemical Smiles": "OC[C@@H]1[C@@H](O)[C@H](O)[C@@H](O)CN1CCCCCCNc1c(F)cc(F)cc1F", "Discrete Label": "True"}
{"Chemical Smiles": "O=[N+]([O-])c1cc(NCCCCCCN2C[C@H](O)[C@@H](O)[C@H](O)[C@H]2CO)ccc1-n1cccn1", "Discrete Label": "False"}
{"Chemical Smiles": "CN(C)Cc1ccc(NCCCCCCN2C[C@H](O)[C@@H](O)[C@H](O)[C@H]2CO)c([N+](=O)[O-])c1", "Discrete Label": "False"}

Req: Field: below-cutoff. Rule: recorded CC50 strictly less than 800 µM. Subject: "OC[C@@H]1[C@@H](O)[C@H](O)[C@@H](O)CN1CCCCCCNc1ncc2[nH]cnc2n1"
Resp: False

Req: Field: below-cutoff. Rule: recorded CC50 strictly less than 800 µM. Subject: "O=[N+]([O-])c1cc(N2CCOCC2)ccc1NCCCCCCN1C[C@H](O)[C@@H](O)[C@H](O)[C@H]1CO"
Resp: False

Req: Consider "O=[N+]([O-])c1cc(-c2cccnn2)ccc1NCCCCCCN1C[C@H](O)[C@@H](O)[C@H](O)[C@H]1CO" . Does its CC50 lie strictly below 800 µM?
Resp: False

Req: Consider "OC[C@@H]1[C@@H](O)[C@H](O)[C@@H](O)CN1CCCCCCNc1ccc(-n2ncnn2)cc1" . Does its CC50 lie strictly below 800 µM?
Resp: False

Req: Please indicate whether the reported CC50 of "CN(C)Cc1ccc([N+](=O)[O-])c(NCCCCCCN2C[C@H](O)[C@@H](O)[C@H](O)[C@H]2CO)c1" is strictly below 800 µM.
Resp: False

Req: Say whether its CC50 is strictly beneath 800 µM. Entry: "O=[N+]([O-])c1cc(-c2ccccn2)ccc1NCCCCCCN1C[C@H](O)[C@@H](O)[C@H](O)[C@H]1CO"
Resp: True

Req: Is the reported CC50 for "O=[N+]([O-])c1ccc(N2CCNCC2)cc1NCCCCCCN1C[C@H](O)[C@@H](O)[C@H](O)[C@H]1CO" strictly below 800 µM?
Resp: False

Req: Given "O=[N+]([O-])c1cc(-n2ncnn2)ccc1NCCCCCCN1C[C@H](O)[C@@H](O)[C@H](O)[C@H]1CO" , is recorded CC50 strictly lower than 800 µM?
Resp: False
